# ASSAY: Chemical stability testing: incubation in HCl, NaOH, H2O2 or NH4HCO3 at 40° C., remaining purity by RP-HPLC
# Type: physicochemical
# PARTICULARS: 40° C., 2 mg/ml, RP-HPLC, relative to the purity at T=0
No end group written: not given here.
QUANTITY MEASURED: Purity H2O2 0.5% 3 days (%)
Quick reminder: number only, in %, skip the unit.

SUBSTANCE	UNIT ABBREVIATION	RECORDED MEASUREMENT
[Gly2, Thr7, Ser8, Leu10, Ala11,24]hGLP-2(1-30)-NH2 (HGDGSFTSELATILDNLAARDFIAWLIQTK-NH2) [Compound 1834]	%	53
[Gly2, Glu3, Ser8, Leu10, Ala11,16,24,28]hGLP-2(1-33)-NH2 (HGEGSFSSELATILDALAARDFIAWLIATKITD-NH2) [Compound 1858]	%	60
[Gly2, Glu3, Ser8, Leu10, Ala11,16,24,28]hGLP-2(1-33)-(Lys)6-NH2 (HGEGSFSSELATILDALAARDFIAWLIATKITDKKKKKK-NH2) [Compound 1849]	%	78
[Gly2, Glu3, Ser8,11, Leu10, Ala16,24,28]hGLP-2(1-33)-(Lys)6-NH2 (HGEGSFSSELSTILDALAARDFIAWLIATKITDKKKKKK-NH2) [Compound 1846]	%	64

substance [Gly2, Glu3, Thr5, Ser8, Leu10, Ala11,16,24,28]hGLP-2(1-33)-(Lys)6-NH2 (HGEGTFSSELATILDALAARDFIAWLIATKITDKKKKKK-NH2) [Compound 1848] , Purity H2O2 0.5% 3 days observed: 68

---

# Tested on: male C57BL mice
# ASSAY: Screening for intestinal growth effects (small intestine and colon mass relative to body weight, small intestine-colon sensitivity index)
# Format: in vivo
# PARTICULARS: male C57BL mice, 30 nmol/kg s.c. twice daily for ten days; third value column
# Description: The ability of the present compounds to stimulate intestinal growth was determined in male C57BL mice. Individual groups (n=6) of mice were given 30 nmol/kg of each compound, s.c, twice daily for ten consecutive days. For comparison purposes other groups of animals were given either an equimolar dose of [Gly2]GLP-2 (SEQ ID NO:54) or vehicle (phosphate buffered saline, pH 7.4) in the same dosing regimen. […]
No end group written: not given here.
QUANTITY MEASURED: small intestine-colon sensitivity index, (SI/Colon)X/(SI/Colon)[Gly2]GLP-2 %

The following substances have reported results that may help.
SUBSTANCE	RECORDED MEASUREMENT
[Gly2, Glu3, Leu10, Lys11, Ala16,24,28]hGLP-2(1-33)-(Lys)6-NH2 (HGEGSFSDELKTILDALAARDFIAWLIATKITDKKKKKK-NH2) [Compound 1850]	116 % [Gly2]GLP-2
[Gly2, Glu3, Thr5, Ser8, Leu10, Ala11,16,24,28]hGLP-2(1-33)-(Lys)6-NH2 (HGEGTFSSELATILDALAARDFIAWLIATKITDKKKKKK-NH2) [Compound 1848]	117 % [Gly2]GLP-2
[Gly2, Glu3, Ser8, Leu10, Ala11,16,24,28]hGLP-2(1-33)-NH2 (HGEGSFSSELATILDALAARDFIAWLIATKITD-NH2) [Compound 1858]	108 % [Gly2]GLP-2
[Gly2, Thr7, Leu10, Lys11, Ala24]hGLP-2(1-30)-NH2 (HGDGSFTDELKTILDNLAARDFIAWLIQTK-NH2) [Compound 1836]	90 % [Gly2]GLP-2

In plain terms, [Gly2, Glu3, Leu10, Lys11, Ala16,24,28]hGLP-2(1-33)-NH2 (HGEGSFSDELKTILDALAARDFIAWLIATKITD-NH2) [Compound 1859] has a documented small intestine-colon sensitivity index, (SI/Colon)X/(SI/Colon)[Gly2]GLP-2 % of 114 % [Gly2]GLP-2
